biological target: Human immunodeficiency virus type 1 protease (Human immunodeficiency virus 1, UniProt Q72874)
Returns the class for an entry based on its IC50. Class ranges: lo = under 700 nM, med = from 700 nM up to 2000 nM, hi = 2000 nM and over

>  <compound.string>
O=c1cc(-c2ccccc2O)oc(O)c1SCc1ccccc1

>  <class>
hi

$$$$
>  <compound.string>
Cc1cc(C)cc(-c2cc(O)c(SCc3ccccc3)c(=O)o2)c1

>  <class>
lo

$$$$
>  <compound.string>
O=c1cc(-c2cccc(OC(F)(F)F)c2)oc(O)c1SCc1ccccc1

>  <class>
hi

$$$$
>  <compound.string>
COC(=O)c1ccc(-c2cc(O)c(SCc3ccccc3)c(=O)o2)cc1

>  <class>
hi

$$$$
>  <compound.string>
COc1ccc(-c2cc(O)c(SCc3ccccc3)c(=O)o2)cc1C

>  <class>
med

$$$$
>  <compound.string>
O=c1cc(-c2ccc3c(c2)OCCO3)oc(O)c1SCc1ccccc1

>  <class>
med

$$$$
>  <compound.string>
O=C(O)c1ccccc1CSc1c(O)cc(-c2ccccc2)oc1=O

>  <class>
hi

$$$$
>  <compound.string>
CC(C)OC(=O)c1ccccc1CSc1c(O)cc(-c2ccccc2)oc1=O

>  <class>
lo

$$$$
>  <compound.string>
COC(=O)c1ccc(CSc2c(O)cc(-c3ccccc3)oc2=O)cc1

>  <class>
hi

$$$$
>  <compound.string>
Cc1ccccc1-c1cc(O)c(SCc2ccccc2)c(=O)o1

>  <class>
hi

$$$$
>  <compound.string>
O=c1cc(-c2cc(C(F)(F)F)cc(C(F)(F)F)c2)oc(O)c1SCc1ccccc1

>  <class>
lo

$$$$
>  <compound.string>
COc1ccc(-c2cc(O)c(SCc3ccccc3)c(=O)o2)cc1

>  <class>
med

$$$$

----------
# reported pIC50; entries follow
target: Human immunodeficiency virus type 1 protease (Human immunodeficiency virus 1, UniProt Q72874)
pIC50: −log10 of the molar value.

>  <compound.string>
O=c1cc(-c2ccccc2)oc(O)c1SCc1ccccc1

>  <pIC50>
5.77

$$$$
>  <compound.string>
Cc1ccccc1CSc1c(O)cc(-c2ccccc2)oc1=O

>  <pIC50>
5.27

$$$$
>  <compound.string>
O=C(O)c1ccc(CSc2c(O)cc(-c3ccccc3)oc2=O)cc1

>  <pIC50>
4.99

$$$$
>  <compound.string>
O=c1cc(-c2ccccc2)oc(O)c1SCc1ccc2c(c1)OCCO2

>  <pIC50>
5.47

$$$$
>  <compound.string>
O=C(O)c1ccc(-c2cc(O)c(SCc3ccccc3)c(=O)o2)cc1

>  <pIC50>
6.44

$$$$
>  <compound.string>
COc1cccc(-c2cc(O)c(SCc3ccccc3)c(=O)o2)c1

>  <pIC50>
6.00

$$$$
>  <compound.string>
Cc1cccc(CSc2c(O)cc(-c3ccccc3)oc2=O)c1

>  <pIC50>
5.07

$$$$
>  <compound.string>
Cc1ccc(CSc2c(O)cc(-c3ccccc3)oc2=O)cc1

>  <pIC50>
5.34

$$$$
>  <compound.string>
O=C(O)c1cccc(CSc2c(O)cc(-c3ccccc3)oc2=O)c1

>  <pIC50>
5.21

$$$$
>  <compound.string>
O=c1cc(-c2ccccc2Cl)oc(O)c1SCc1ccccc1

>  <pIC50>
5.60

$$$$
>  <compound.string>
COC(=O)c1cccc(CSc2c(O)cc(-c3ccccc3)oc2=O)c1

>  <pIC50>
4.71

$$$$

----------
# reported pIC50; entries follow
target: UniProtKB Q72874
pIC50: −log10 of the molar value.
measured.quantity: pIC50

>  <compound.string>
O=c1cc(-c2cccc(C(F)(F)F)c2)oc(O)c1SCc1ccccc1

>  <measured.number>
6.22

$$$$
>  <compound.string>
O=c1cc(-c2cccc(O)c2)oc(O)c1SCc1ccccc1

>  <measured.number>
5.92

$$$$
>  <compound.string>
Cc1cc(-c2cc(O)c(SCc3ccccc3)c(=O)o2)cc(C)c1O

>  <measured.number>
6.60

$$$$

FYI, the data here is from ChEMBL document CHEMBL1149949.
